Recorded values, source patent US20240247080A1.

Could you please report measured EC50 hGLP1R 0.5% hP (CreLuc) for the items listed next?
- systemUnderTest: GLP-1 receptor (human (printed as hGLP1R), UniProt P43220 24-463)
- testDetails: cell-based or functional assay
Starred links: 1 amine or outer side, 2 acyl side, 3 side chain; linkers in the order of their positions; H or OH if unused. Non-standard residues stand in square brackets, D forms with d. Groups on a side chain read outwards from the residue. No end group written: not given here. *: point of attachment. C20 diacid = O=C(O)CCCCCCCCCCCCCCCCCCC(=O)*; γGlu = O=C(O)[C@H](CCC(=O)[*:2])N[*:1]; εLys = N[C@@H](CCCCN[*:1])C(=O)[*:2]; Aib = CC(C)(N)C(=O)O
Please respond with the number in nM and leave the unit unwritten.

Data request: Report measured EC50 hGLP1R 0.5% hP (CreLuc); entry is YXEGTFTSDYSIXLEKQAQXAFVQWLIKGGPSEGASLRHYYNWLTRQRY (Aib at 2, 13, 20; K28 side chain carries C18DA-gGlu-gGlu-gGlu-gGlu-gGlu; C-terminal amide) [Compound 250]
Data returned: 0.08

Data request: Give recorded EC50 hGLP1R 0.5% hP (CreLuc). Y[Aib]EGTFTSDYSI[Aib]LE[Aib]QAQ[Aib]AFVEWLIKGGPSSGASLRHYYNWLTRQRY-NH2 (not fully specified (residue 28); also: TFA salt) [Compound 199]
Data returned: 1.26

Data request: Give the reported EC50 hGLP1R 0.5% hP (CreLuc) for this binder. YXEGTFTSDYSIXLEKQAQXAFVEWLIKGGPSSGALLRHYYNWLTRQRY (Aib at 2, 13, 20; K28 side chain carries C20DA-gGlu-gGlu-gGlu-gGlu-gGlu-gGlu-eLys; C-terminal amide) [Compound 197]
Data returned: 0.31

Data request: Give a short answer stating reported EC50 hGLP1R 0.5% hP (CreLuc) for Y[Aib]EGTFTSDYSI[Aib]LEKQAE[Aib]AFVQWLIK([εLys-γGlu-γGlu-γGlu-γGlu-γGlu-C20 diacid])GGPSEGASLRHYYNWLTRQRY-NH2 (also: TFA salt) [Compound 200] .
Data returned: 0.48

Data request: Fill in EC50 hGLP1R 0.5% hP (CreLuc) for record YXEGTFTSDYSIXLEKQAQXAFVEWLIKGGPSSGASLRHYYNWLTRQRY (Aib at 2, 13, 20; K28 side chain carries C20DA-gGlu-gGlu-gGlu-gGlu-gGlu-OEG-OEG; C-terminal amide) [Compound 229]
Data returned: 0.1

Data request: Give a short answer stating reported EC50 hGLP1R 0.5% hP (CreLuc) for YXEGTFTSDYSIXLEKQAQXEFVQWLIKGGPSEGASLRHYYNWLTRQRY (Aib at 2, 13, 20; K28 side chain carries C18DA-E-E-E-E-E (SEQ ID NO: 636); C-terminal amide) [Compound 176] .
Data returned: 0.29

Data request: Tell us which EC50 hGLP1R 0.5% hP (CreLuc) value is on record for YXEGTFTSDYSIXLEKQAQXAFVEWLIKGGPSEPASLRHYYNWLTRQRY (Aib at 2, 13, 20; K28 side chain carries C20DA-gGlu-gGlu-gGlu-gGlu-gGlu-gGlu-eLys; C-terminal amide) [Compound 233]
Data returned: 0.17

Data request: Specify reported EC50 hGLP1R 0.5% hP (CreLuc) for the binder shown: YXEGTFTSDYSIXLEKQAQXAFVEWLIKGGPSEGQSLRHYYNWLTRQRY (Aib at 2, 13, 20; K28 side chain carries C20DA-gGlu-gGlu-gGlu-gGlu-gGlu-gGlu-eLys; C-terminal amide) [Compound 227]
Data returned: 0.13
